# System: human PBMCs
# Assay type: cell-based
QUANTITY KIND: Intracellular Uptake
Just the number, please, no unit attached.

The cases that follow already have their Intracellular Uptake on record.
CHAIN SEQUENCE	QUANTITY KIND	READOUT NUMBER
RRGYLPAVGAPIRRVIRVIAHGLRL [BI310-511d]	Intracellular Uptake	70.64
RRGTANWARVISRANWAKVILRNWAKVI [BI330-83]	Intracellular Uptake	194.69
RGYLPAVGAPIRRRVIRVIAHGLRLR [BI310-511]	Intracellular Uptake	22.62
RGTANWARVISRGANWAKVILRNWAKVI [BI330-83d]	Intracellular Uptake	52.14
RGYLPAVGAPIRRVIRVIAHGLRL [BI310-511g]	Intracellular Uptake	66.74

Ask | # value lookup — system human PBMCs, readout Intracellular Uptake, item RGYLPAVGAPIRRVIRVIAHGLRLR [BI310-511e]
Reply | 44.59

Ask | Okay, and RRGYLPAVGAPIRRVIRVIAHGLRLR [BI310-511b] ?
Reply | 67.29

Ask | // query: RGTANWARVISRRANWAKVILRNWAKVI [BI330-83b]
Reply | 120.10

Ask | Repeat for the following sequence: RRGYLPAVGAPIRRRVIRVIAHGLRL [BI310-511c]
Reply | 31.83

Ask | Also need RGYLPAVGAPIRVIRVIAHGLRLR [BI310-511f] , thanks.
Reply | 26.85

Ask | One more sequence: RGTANWARVISRANWAKVILRNWAKVI [BI330-83c]
Reply | 154.43
